- system_name: T1, HER2 recombinant human protein (human, UniProt P04626 23-652, limits assumed)
- T1 construct: Covalently attached to a carboxymethylated dextran SPR chip by EDC/NHS; also called HER2 protein; human epidermal growth factor receptor 2
- protocol_details: SPR, HER2 immobilized, peptide as analyte, 1:1 model
Where no end group is shown, it is not given here.
measurement_name: pKd
Reminder that pKd is minus the log10 of a molar concentration.

{"binder": "PGNDTGLSRAPENSGFTYQ (not fully specified, Designed pertuzumab mimic peptide; Unlabelled in SPR; FITC-labelled in cell assays) [HER2-PEP21]", "pKd": 7.25}

According to the records, this binder TSPQGYPNDAGFLGRESTN (not fully specified, Unlabelled in SPR; FITC-labelled in cell assays; also called control peptide; FITC-HER2-PEP22) [HER2-PEP22] displays pKd of 3.86

The recorded pKd for entry VGYDTGLRAPNSVGSTKQ (not fully specified, Designed pertuzumab mimic peptide; Unlabelled in SPR; FITC-labelled in cell assays) [HER2-PEP7] equals 7.03
